System: A-375
Assay: Antiproliferative activity against human A-375 cells assessed as inhibition of cell proliferation measured after 3 days by MTT assay
Type: functional, cell-based
Settings: A-375, 72 h
Measured attribute: pIC50
Answers are plain numbers, as −log10 of the molar value.

> print(dat)
                           substance.smiles  recorded.value
1  CC(C)=CC[C@@H](OC(=O)C(C)C)C1=CC(=O)c2c(O)ccc(O)c2C1=O            5.77
2  CC(=O)O[C@H](CC=C(C)C)C1=CC(=O)c2c(O)ccc(O)c2C1=O            5.72
3  CC(C)=CC[C@H](O)C1=CC(=O)c2c(O)ccc(O)c2C1=O            5.85
4               O=C1C=CC(=O)c2c(O)ccc(O)c21            5.05
5      CC(C)=CCCC1=CC(=O)c2c(O)ccc(O)c2C1=O            5.17

Answer with the recorded pIC50 of CC(C)=CC[C@@H](O)C1=CC(=O)c2c(O)ccc(O)c2C1=O only.
6.15
